In this section, each of the compounds is paired with its reported IC50.
systemName: Androgen receptor (Homo sapiens)
Sequence (P10275 whole entry): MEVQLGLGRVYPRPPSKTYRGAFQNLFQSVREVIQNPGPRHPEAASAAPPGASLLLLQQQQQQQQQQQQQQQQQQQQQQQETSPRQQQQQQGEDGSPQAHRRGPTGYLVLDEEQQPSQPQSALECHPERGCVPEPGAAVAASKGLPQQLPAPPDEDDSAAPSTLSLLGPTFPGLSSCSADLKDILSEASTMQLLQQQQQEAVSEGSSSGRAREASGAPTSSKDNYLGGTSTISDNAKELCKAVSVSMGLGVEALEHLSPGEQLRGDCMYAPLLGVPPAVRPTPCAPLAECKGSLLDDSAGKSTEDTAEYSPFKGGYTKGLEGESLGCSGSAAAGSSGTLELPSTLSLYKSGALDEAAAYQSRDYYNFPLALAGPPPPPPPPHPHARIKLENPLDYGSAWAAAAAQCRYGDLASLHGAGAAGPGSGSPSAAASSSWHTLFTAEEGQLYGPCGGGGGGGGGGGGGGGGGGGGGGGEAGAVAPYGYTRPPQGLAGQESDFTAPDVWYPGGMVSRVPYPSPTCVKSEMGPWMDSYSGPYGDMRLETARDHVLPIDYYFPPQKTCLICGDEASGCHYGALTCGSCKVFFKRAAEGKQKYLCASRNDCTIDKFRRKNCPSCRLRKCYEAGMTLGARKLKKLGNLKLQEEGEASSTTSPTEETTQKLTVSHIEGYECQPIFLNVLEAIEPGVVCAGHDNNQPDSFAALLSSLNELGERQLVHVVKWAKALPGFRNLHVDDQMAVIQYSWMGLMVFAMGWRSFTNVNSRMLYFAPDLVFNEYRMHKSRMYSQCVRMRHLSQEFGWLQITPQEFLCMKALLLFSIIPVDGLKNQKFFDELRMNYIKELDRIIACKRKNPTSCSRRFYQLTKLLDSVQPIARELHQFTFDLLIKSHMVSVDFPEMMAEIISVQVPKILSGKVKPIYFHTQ
Please report the result as a number followed by the unit.

These solved cases illustrate the format of a correct answer.
C=C1C=C2CC[C@H]3[C@@H]4CC[C@H](O)[C@@]4(C)CC[C@@H]3[C@@]2(C)CC1 ... 40 nM
C=C[C@]12CC[C@@](C)(O)CC1=CC[C@H]1[C@@H]3CC[C@H](O)[C@@]3(C)CC[C@@H]12 ... 2610 nM
C=C[C@]12CCC(C)=CC1=CC[C@H]1[C@@H]3CC[C@H](O)[C@@]3(C)CC[C@@H]12 ... 560 nM

// below: IC50 requested for another compound
Query :: Can you look up the measured IC50 of "C=C[C@]12CC[C@](C)(O)CC1=CC[C@H]1[C@@H]3CC[C@H](O)[C@@]3(C)CC[C@@H]12" for me?
Result :: 842 nM

----------
Hi! I'm sharing some EC50 results obtained with Estrogen receptor beta (Homo sapiens).
The reply should be a number in nM, with the unit left off.

These solved cases illustrate the format of a correct answer.
C#CC1(O)CC[C@H]2[C@@H]3CC=C4C=C(C)CC[C@]4(C=C)[C@H]3CC[C@@]21C (single isomer, unassigned) ... 31
C=C[C@]12CCC(CC)=CC1=CC[C@H]1[C@@H]3CC[C@H](O)[C@@]3(C)CC[C@@H]12 ... 565
CC1=CC2=CC[C@H]3[C@@H]4CC[C@H](O)[C@@]4(C)CC[C@@H]3[C@@]2(C)CC1 ... 220
C=C[C@]12CCC(C)=CC1=CC[C@@H]1[C@@H]2CC[C@@]2(C)[C@H]1CC[C@]2(C)O ... 480
C=C[C@]12CC[C@](C)(O)CC1=CC[C@H]1[C@@H]3CC[C@H](O)[C@@]3(C)CC[C@@H]12 ... 240

// below: EC50 requested for another molecule
Query :: Requested read-out EC50, target or system Estrogen receptor beta (Homo sapiens), entry "C=C[C@]12CCC(=C)C=C1CC[C@H]1[C@@H]3CC[C@H](O)[C@@]3(C)CC[C@@H]12"
Result :: 230

----------
Hi! I'm sharing some pEC50 results obtained with Estrogen receptor beta (Homo sapiens, UniProt Q92731).
Sequence (Q92731 whole entry): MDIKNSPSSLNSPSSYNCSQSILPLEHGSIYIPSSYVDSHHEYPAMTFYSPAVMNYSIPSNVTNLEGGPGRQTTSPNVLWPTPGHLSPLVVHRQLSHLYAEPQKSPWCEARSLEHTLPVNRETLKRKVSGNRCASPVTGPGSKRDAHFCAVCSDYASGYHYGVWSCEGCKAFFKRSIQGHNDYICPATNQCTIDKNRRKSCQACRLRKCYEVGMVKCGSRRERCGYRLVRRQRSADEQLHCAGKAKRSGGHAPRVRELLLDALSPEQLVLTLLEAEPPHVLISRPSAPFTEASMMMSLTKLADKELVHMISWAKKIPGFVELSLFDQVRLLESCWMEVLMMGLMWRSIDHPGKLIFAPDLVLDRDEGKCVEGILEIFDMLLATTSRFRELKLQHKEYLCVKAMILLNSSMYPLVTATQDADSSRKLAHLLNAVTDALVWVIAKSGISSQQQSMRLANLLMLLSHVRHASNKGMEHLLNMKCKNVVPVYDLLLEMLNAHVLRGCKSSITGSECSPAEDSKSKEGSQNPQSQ
By convention, pEC50 is the negative base-10 log of a molar concentration.

C=C[C@]12CC[C@H](O)CC1=CC[C@@H]1[C@@H]2CC[C@@]2(C)[C@H]1CC[C@]2(C)O ... 6.72
C=C1C=C2CC[C@H]3[C@@H]4CC[C@H](O)[C@@]4(C)CC[C@@H]3[C@@]2(C)CC1 ... 6.68
C=C[C@]12CCC(Cl)=CC1=CC[C@H]1[C@@H]3CC[C@H](O)[C@@]3(C)CC[C@@H]12 ... 6.77

// below: pEC50 requested for another molecule
Query :: Requested read-out pEC50, target or system Estrogen receptor beta (Homo sapiens, UniProt Q92731), entry "C=C[C@]12CCC(C)=CC1=CC[C@H]1[C@@H]3CC[C@H](O)[C@@]3(C)CC[C@@H]12"
Result :: 7.16

----------
Hi! I'm sharing some IC50 results obtained with UniProt Q92731.
Please report the result as a number followed by the unit.

These solved cases illustrate the format of a correct answer.
C=C[C@]12CCC(CC)=CC1=CC[C@H]1[C@@H]3CC[C@H](O)[C@@]3(C)CC[C@@H]12 ... 115 nM
C=C[C@]12CC[C@](C)(O)CC1=CC[C@H]1[C@@H]3CC[C@H](O)[C@@]3(C)CC[C@@H]12 ... 255 nM
C=C[C@]12CC[C@@](C)(O)CC1=CC[C@H]1[C@@H]3CC[C@H](O)[C@@]3(C)CC[C@@H]12 ... 2490 nM

Query :: Requested read-out IC50, target or system UniProt Q92731, entry "C=C[C@]12CCC(C)=CC1=CC[C@H]1[C@@H]3CC[C@H](O)[C@@]3(C)CC[C@@H]12"
Result :: 9 nM
